Recorded koff for the following binders
- TARGET OR TEST SYSTEM: T1, IL-11 protein (UniProt P20809 22-199, limits assumed)
- T1 construct: also called IL-11 antigen
- T1 sequence (looked up): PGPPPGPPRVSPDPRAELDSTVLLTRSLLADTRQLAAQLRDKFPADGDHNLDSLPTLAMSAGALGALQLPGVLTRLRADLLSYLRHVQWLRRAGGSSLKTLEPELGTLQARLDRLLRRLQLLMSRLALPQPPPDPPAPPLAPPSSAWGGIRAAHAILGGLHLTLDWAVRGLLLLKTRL
- ASSAY PROTOCOL: SPR (Biacore), antibody captured, 400 nM IL-11 as analyte
Unit s⁻¹ implied. Number only.

Example binders with recorded koff:
VH1 + VL2-scFv (scFv, V domains shown, Humanized 5-20E11-5F2; CHO supernatant; Called scFv, but heavy and light vectors were co-transfected) VH: QVQLVQSGAEVKKPGASVKVSCKASDYTFTNYWLGWVRQAPGQGLEWMGHIYPGGGYTNYNEKFKGRVTMTRDTSTSTVYMELSSLRSEDTAVYYCARVRSGNDALDFWGQGTLVTVSS VL: EIVLTQSPATLSLSPGERATLSCRASESVDEYGISFMNWYQQKPGQAPRLLIYSASNQGSGIPARFSGSGSGTDFTLTISSLEPEDFAVYFCQQSKEVPWTFGGGTKLEIK | 0.000461
VH1 + VL4-scFv (scFv, V domains shown, Humanized 5-20E11-5F2; CHO supernatant; Called scFv, but heavy and light vectors were co-transfected) VH: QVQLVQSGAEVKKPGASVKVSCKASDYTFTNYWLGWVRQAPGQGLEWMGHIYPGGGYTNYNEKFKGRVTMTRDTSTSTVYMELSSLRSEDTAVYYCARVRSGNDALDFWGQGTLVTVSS VL: EIVLTQSPATLSLSPGERATLSCRASESVDEYGISFMNWFQQKPGQAPRLLIYSASNQGSGIPARFSGSGSGTDFTLTISSLEPEDFAMYFCQQSKEVPWTFGGGTKLEIK | 0.000387
VH2 + VL1-scFv (scFv, V domains shown, Humanized 5-20E11-5F2; CHO supernatant; Called scFv, but heavy and light vectors were co-transfected) VH: QVQLVQSGAEVKKPGASVKVSCKASDYTFTNYWLGWVRQAPGQGLEWIGHIYPGGGYTNYNEKFKGRVTMTADTSTSTVYMELSSLRSEDTAVYFCARVRSGNDALDFWGQGTLVTVSS VL: EIVLTQSPATLSLSPGERATLSCRASESVDEYGISFMNWYQQKPGQAPRLLIYSASNQGSGIPARFSGSGSGTDFTLTISSLEPEDFAVYYCQQSKEVPWTFGGGTKLEIK | 0.00089

# koff of VH3 + VL4-scFv (scFv, V domains shown, Humanized 5-20E11-5F2; CHO supernatant; Called scFv, but heavy and light vectors were co-transfected) VH: QVQLVQSGAEVKKPGASVKVSCKASDYTFTNYWLGWVRQAPGQGLEWIGHIYPGGGYTNYNEKFKGRATLTADTSTSTVYMELSSLRSEDTAVYFCARVRSGNDALDFWGQGTLVTVSS VL: EIVLTQSPATLSLSPGERATLSCRASESVDEYGISFMNWFQQKPGQAPRLLIYSASNQGSGIPARFSGSGSGTDFTLTISSLEPEDFAMYFCQQSKEVPWTFGGGTKLEIK = 0.000556

Recorded koff (binder VH2 + VL3-scFv (scFv, V domains shown, Humanized 5-20E11-5F2; CHO supernatant; Called scFv, but heavy and light vectors were co-transfected) VH: QVQLVQSGAEVKKPGASVKVSCKASDYTFTNYWLGWVRQAPGQGLEWIGHIYPGGGYTNYNEKFKGRVTMTADTSTSTVYMELSSLRSEDTAVYFCARVRSGNDALDFWGQGTLVTVSS VL: EIVLTQSPATLSLSPGERATLSCRASESVDEYGISFMNWFQQKPGQAPRLLIYSASNQGSGIPARFSGSGSGTDFTLTISSLEPEDFAVYFCQQSKEVPWTFGGGTKLEIK ): 0.000541

So for VH1 + VL1-scFv (scFv, V domains shown, Humanized 5-20E11-5F2; CHO supernatant; Called scFv, but heavy and light vectors were co-transfected) VH: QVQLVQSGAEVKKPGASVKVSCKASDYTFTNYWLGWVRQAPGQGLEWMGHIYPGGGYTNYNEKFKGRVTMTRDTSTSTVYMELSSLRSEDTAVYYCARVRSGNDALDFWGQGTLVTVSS VL: EIVLTQSPATLSLSPGERATLSCRASESVDEYGISFMNWYQQKPGQAPRLLIYSASNQGSGIPARFSGSGSGTDFTLTISSLEPEDFAVYYCQQSKEVPWTFGGGTKLEIK , the logged koff turned out to be 0.000758
